Where do the numbers come from? From ChEMBL document CHEMBL1155083.

- EXPERIMENTAL_SYSTEM: 11-beta-hydroxysteroid dehydrogenase 1 (Mus musculus, UniProt P50172)
- Sequence (P50172 whole entry): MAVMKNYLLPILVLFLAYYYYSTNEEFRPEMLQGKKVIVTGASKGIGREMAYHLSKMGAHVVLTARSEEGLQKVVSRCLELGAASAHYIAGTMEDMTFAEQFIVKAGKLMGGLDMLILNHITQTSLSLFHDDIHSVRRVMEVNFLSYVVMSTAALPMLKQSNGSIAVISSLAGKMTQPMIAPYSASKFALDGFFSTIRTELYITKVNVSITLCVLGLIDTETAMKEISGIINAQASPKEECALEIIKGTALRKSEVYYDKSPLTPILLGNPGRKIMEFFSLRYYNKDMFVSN
- METHOD_NOTES: Inhibition of C57BL/6 mouse 11betaHSD1 in presence of human serum
Each entry below carries its reported pIC50.
To interpret pIC50, take it as minus log10 of a concentration measured in moles per litre.

>>> df
                                   compound  experimental_result
0  COC(=O)N1CCN(c2cccc(S(=O)(=O)N3CCN(c4ccc(F)cc4C(F)(F)F)C[C@H]3C)c2)CC1                 6.66
1  C[C@@H]1CN(c2ccc(F)cc2C(F)(F)F)CCN1S(=O)(=O)c1cccc(N2CC[C@H](O)C2)c1                 7.39
2  C[C@@H]1CN(c2ccc(F)cc2C(F)(F)F)CCN1S(=O)(=O)c1cccc(-n2cncn2)c1                 7.38
3  C[C@@H]1CN(c2ccc(F)cc2C(F)(F)F)CCN1S(=O)(=O)c1cccc(N2CCC(C(=O)O)C2)c1 (stereo partly drawn)                 7.05
4  C[C@@H]1CN(c2ccc(F)cc2C(F)(F)F)CCN1S(=O)(=O)c1cccc(N2CCCCC2)c1                 7.17
5  C[C@@H]1CN(c2ccc(F)cc2C(F)(F)F)CCN1S(=O)(=O)c1cccc(N2CC[C@@H](O)C2)c1                 7.89

Looking for the measured pIC50 of CCNC(=O)N1CCN(c2cccc(S(=O)(=O)N3CCN(c4ccc(F)cc4C(F)(F)F)C[C@H]3C)c2)CC1 , can you help? 6.66

Entry under review: C[C@@H]1CN(c2ccc(F)cc2C(F)(F)F)CCN1S(=O)(=O)c1cccc(-n2ccnc2)c1 . Reported pIC50? 7.14

----------
- EXPERIMENTAL_SYSTEM: 11-beta-hydroxysteroid dehydrogenase type 2 (Homo sapiens)
- Sequence (whole entry): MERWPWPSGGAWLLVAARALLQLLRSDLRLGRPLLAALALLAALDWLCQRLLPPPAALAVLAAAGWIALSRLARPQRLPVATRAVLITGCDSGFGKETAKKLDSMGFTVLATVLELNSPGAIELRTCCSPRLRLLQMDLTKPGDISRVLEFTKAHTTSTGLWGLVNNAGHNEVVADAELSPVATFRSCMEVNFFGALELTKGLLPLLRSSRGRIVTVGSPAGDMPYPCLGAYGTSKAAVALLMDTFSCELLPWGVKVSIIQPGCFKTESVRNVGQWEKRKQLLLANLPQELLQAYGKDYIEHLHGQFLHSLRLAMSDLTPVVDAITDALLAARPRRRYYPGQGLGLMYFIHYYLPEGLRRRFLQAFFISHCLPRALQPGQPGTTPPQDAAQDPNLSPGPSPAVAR
- METHOD_NOTES: Inhibition of 11betaHSD2 at 100 uM by cell based assay
Active and inactive are the calls of the source. The calls are words filed in the database; no cut-off is given here.
VALUE_TYPE: Activity

Observe how each entry below is paired with its result.
In [3]: df
Out[3]:
                                     smiles                       experimental_system  experimental_result
0  C[C@@H]1CN(c2ccc(F)cc2C(F)(F)F)CCN1S(=O)(=O)c1cccc(N2CCCCC2)c1  11-beta-hydroxysteroid dehydrogenase type 2 (Homo sapiens)             inactive
1  C[C@@H]1CN(c2ccc(F)cc2C(F)(F)F)CCN1S(=O)(=O)c1cccc(N2CCNCC2)c1  11-beta-hydroxysteroid dehydrogenase type 2 (Homo sapiens)             inactive
2  C[C@@H]1CN(c2ccc(F)cc2C(F)(F)F)CCN1S(=O)(=O)c1cccc(N2CC[C@H](O)C2)c1  11-beta-hydroxysteroid dehydrogenase type 2 (Homo sapiens)             inactive
3  CC(C)N1CCN(c2cccc(S(=O)(=O)N3CCN(c4ccc(F)cc4C(F)(F)F)C[C@H]3C)c2)CC1  11-beta-hydroxysteroid dehydrogenase type 2 (Homo sapiens)             inactive
4  O=S(=O)(c1ccc(Cl)c(Cl)c1)N1CCN(c2ccc(F)cc2C(F)(F)F)CC1  11-beta-hydroxysteroid dehydrogenase type 2 (Homo sapiens)             inactive

Notebook: pull reported Activity for 11-beta-hydroxysteroid dehydrogenase type 2 (Homo sapiens), entry CCN1CCN(c2cccc(S(=O)(=O)N3CCN(c4ccc(F)cc4C(F)(F)F)C[C@H]3C)c2)CC1 inactive

Activity of C[C@@H]1CN(c2ccc(F)cc2C(F)(F)F)CCN1S(=O)(=O)c1cccc(-n2cncn2)c1 on 11-beta-hydroxysteroid dehydrogenase type 2 (Homo sapiens)? inactive

Find the measured Activity: item C[C@@H]1CN(c2ccc(F)cc2C(F)(F)F)CCN1S(=O)(=O)c1cccc(-n2cccn2)c1 , target or system 11-beta-hydroxysteroid dehydrogenase type 2 (Homo sapiens). inactive

Report Activity for C[C@@H]1CN(c2ccc(F)cc2C(F)(F)F)CCN1S(=O)(=O)c1cccc(-n2cnnc2)c1 tested on 11-beta-hydroxysteroid dehydrogenase type 2 (Homo sapiens). inactive
